B1: POU domain, class 3, transcription factor 3, residues 408 to 463; numbered along this chain, P20264 (parent)
chain: KKRTSIEVSVKGALESHFLKCPKPSAQEITNLADSLQLEKEVVRVWFCNRRQKEKR

Variants of: B1
Assay: abundance fitness (aPCA) (normalised: wild type 0, dead -1); higher = more abundant; growth selection in yeast, the domain comes from the species named
Details: Homo sapiens
variants and their reported abundance fitness
Simply state the number, no unit and no words.

Take a look at these entries with their results.
1. E7Y	-0.3
2. I29K	-1.07
3. F18T	-0.922
4. E28K	-0.538
5. S5A	0.086

**Q:** # get_value(readout='abundance fitness', item= T30C )
**A:** -0.037

**Q:** And then R3K , what is it?
**A:** 0.067

**Q:** And then A33R , what is it?
**A:** -0.989

**Q:** And then E41N , what is it?
**A:** -0.318

**Q:** And then K20M , what is it?
**A:** -0.187

**Q:** And then E54P , what is it?
**A:** -0.543

**Q:** And then K20C , what is it?
**A:** -0.465
